TARGET_SYSTEM: UniProtKB P08631
Sequence (P08631 whole entry, looked up): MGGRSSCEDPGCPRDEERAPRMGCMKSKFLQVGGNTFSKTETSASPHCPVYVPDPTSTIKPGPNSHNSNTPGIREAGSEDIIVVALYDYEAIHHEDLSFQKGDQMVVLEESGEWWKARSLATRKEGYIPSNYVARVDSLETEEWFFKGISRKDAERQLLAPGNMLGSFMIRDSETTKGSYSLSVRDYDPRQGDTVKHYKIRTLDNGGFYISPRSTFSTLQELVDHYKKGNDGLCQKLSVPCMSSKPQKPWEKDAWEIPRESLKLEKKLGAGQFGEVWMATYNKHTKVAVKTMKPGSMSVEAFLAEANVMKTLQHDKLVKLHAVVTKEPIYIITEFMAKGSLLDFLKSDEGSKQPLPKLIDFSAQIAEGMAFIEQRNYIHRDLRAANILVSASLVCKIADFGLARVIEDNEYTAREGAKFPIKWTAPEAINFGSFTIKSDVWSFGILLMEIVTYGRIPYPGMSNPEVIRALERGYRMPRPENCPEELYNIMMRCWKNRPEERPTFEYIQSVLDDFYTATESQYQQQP
PROTOCOL_DETAILS: radiometric filter-binding kinase assay, Kinase HotSpot
CONDITIONS_USED: compound 0.5 µM; ATP 10 µM
Please respond with reported residual activity for every item in the list.
Dear colleague, please send the value followed by its unit.

Cc1[nH]c(/C=C2\C(=O)Nc3ccc(S(=O)(=O)N(C)c4cccc(Cl)c4)cc32)c(C)c1C(=O)N1CCN(C)CC1: 63.5%
CCOC(=O)c1c(C)[nH]c(/C=C2\C(=O)Nc3ccccc32)c1C: 92.6%
O=C1NC(=O)C(c2cn(CCCn3ccnc3)c3ccccc23)=C1Nc1ccccc1: 97.9%
O=C1NC(=O)/C(=C/c2ccc3c(c2)OC(F)(F)O3)S1: 89.8%

Field: next compound
### Prompt // query residual activity value for entry O=C(Nc1cccc(Nc2nccc(Nc3cccc(C(F)(F)F)c3)n2)c1)C1CC1
### Response 102%
